Origin of values: patent US6344203B1

- system-under-test: IB4 lectin (Griffonia simplicifolia, UniProt Q8W1R6)
- Sequence (Q8W1R6 1-247): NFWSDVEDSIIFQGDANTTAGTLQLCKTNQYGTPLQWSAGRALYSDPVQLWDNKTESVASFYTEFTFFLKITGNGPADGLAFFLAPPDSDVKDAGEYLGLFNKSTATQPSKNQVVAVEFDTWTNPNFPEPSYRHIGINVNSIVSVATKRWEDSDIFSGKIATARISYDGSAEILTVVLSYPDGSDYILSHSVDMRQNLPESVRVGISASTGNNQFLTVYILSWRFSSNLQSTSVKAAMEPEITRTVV
- protocol-text: Elisa: inhibition of IB4 lectin binding to Galα(1,3)Gal-BSA
- condition-context: Elisa, peptide concentration 5 mM (FIG. 8a)
No end group written: not given here.
observable: Inhibition of binding of IB4 to Galα(1,3)Gal-BSA

Examples with answers:
- residue-string: "LSGVRFSAARTAHPLPQKH [TNF pep 1, control peptide, MURINE TNFβ]"
  endpoint-result: "did not inhibit"
- residue-string: "TSSASTGHATPLPVTP [Muc pep 11]"
  endpoint-result: "complete inhibition"
- residue-string: "PAPGSTAPPAHGVTSA [Muc pep 5]"
  endpoint-result: "complete inhibition"
- residue-string: "KYPTTTPISTTTMVTPTPTPTGTQTPTTT [Muc pep 9, human Muc2 VNTR]"
  endpoint-result: "no inhibition"
- residue-string: "RSSVPSSTEKNAVSMTSSVL [Muc pep 7, human Muc1 NH2 to VNTR]"
  endpoint-result: "no inhibition"
- residue-string: "TECKHKKGKVVSGKVLSY [CD4 pep 1, control peptide, murine CD4]"
  endpoint-result: "did not inhibit"
- residue-string: "CPAHGVTSAPDTRPAPGSTAP [Muc pep 1]"
  endpoint-result: "complete inhibition"

Now, please, on to the next sequence.
Respond only with Inhibition of binding of IB4 to Galα(1,3)Gal-BSA recorded for APDTRPAPGSTAPPAH [Muc pep 4] complete inhibition

###

- system-under-test: IB4 lectin (Griffonia simplicifolia)
- protocol-text: Elisa: inhibition of IB4 lectin binding to Galα(1,3)Gal-BSA
No end group written: not given here.
observable: pIC50
One number for each entry, as −log10 of the molar value.

Look up and report measured pIC50 for this entry: DAHWESWL [Gal pep 1] 3.52

###

- system-under-test: IB4 lectin (Griffonia simplicifolia, UniProt Q8W1R6)
- Sequence (Q8W1R6 1-247): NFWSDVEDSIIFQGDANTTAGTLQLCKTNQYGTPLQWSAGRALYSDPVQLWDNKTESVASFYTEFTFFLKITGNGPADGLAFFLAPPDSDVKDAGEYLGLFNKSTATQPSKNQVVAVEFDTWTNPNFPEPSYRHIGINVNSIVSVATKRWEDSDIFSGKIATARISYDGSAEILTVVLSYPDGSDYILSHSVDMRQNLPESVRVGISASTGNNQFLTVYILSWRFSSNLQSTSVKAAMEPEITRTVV
- protocol-text: Cytofluorographic inhibition of IB4 lectin binding to PIEC cells
- Assay type: cell-based
- condition-context: peptides at 5 mM (FIG. 7)
No end group written: not given here.
observable: Inhibition of IB4 lectin binding to PIEC cells

- residue-string: "TGFNQYKTEAASRVNL [Muc pep 8, human Muc1 COOH to VNTR]"
  system-under-test: "IB4 lectin (Griffonia simplicifolia, UniProt Q8W1R6)"
  endpoint-result: "inhibited"
- residue-string: "TSSASTGHATPLPVTP [Muc pep 11]"
  system-under-test: "IB4 lectin (Griffonia simplicifolia, UniProt Q8W1R6)"
  endpoint-result: "inhibited"
- residue-string: "CHSTPSFTSSITTTETTS [Muc pep 10, human Muc3 VNTR]"
  system-under-test: "IB4 lectin (Griffonia simplicifolia, UniProt Q8W1R6)"
  endpoint-result: "inhibited"

###

- System: human anti-Galα(1,3)Gal IgG antibodies
- protocol-text: Elisa: inhibition of anti-Galα(1,3)Gal IgG binding to Galα(1,3)Gal-BSA
- condition-context: Elisa, peptides at 5 mM (FIG. 8b)
No end group written: not given here.
observable: Inhibition of binding of anti-Galα(1,3)Gal IgG to Galα(1,3)Gal-BSA

- residue-string: "TECKHKKGKVVSGKVLSY [CD4 pep 1, control peptide, murine CD4]"
  endpoint-result: "had no effect"
- residue-string: "CPAHGVTSAPDTRPAPGSTAP [Muc pep 1]"
  endpoint-result: "inhibited"
- residue-string: "RYHHYSSNFSIPKANHSHSGDYYCKGSL [FcR pep 1, control peptide, MURINE FCRIIβ2]"
  endpoint-result: "had no effect"
- residue-string: "TSSASTGHATPLPVTP [Muc pep 11]"
  endpoint-result: "inhibited"
